# IC50 per entry
measurement_target: HIF-2α HIS TAG-PASB Domain (Homo sapiens)
Construct: 100 nM HIF-2α HIS TAG-PASB Domain
test_protocol: HIF-2α Scintillation Proximity Assay (SPA)
Type: binding
condition_notes: read-out: Scintillation Proximity Assay IC50

Recorded results for 5 molecules are shown here.
molecule: CCOC(=O)/C=C/c1c(S(=O)(=O)C(F)(F)F)ccc(Oc2cc(F)cc(C#N)c2)c1C [Compound 148]
IC50: 50 to 249 nM
//
molecule: O=C1CC[C@@H](Oc2ccc(S(=O)(=O)C(F)(F)F)c3c2CC(F)(F)[C@H]3O)CN1 [Compound 720]
IC50: > 1000 nM
//
molecule: O=S(=O)(c1ccc(OC2CCCCC2)c2c1C(O)C(F)(F)C2)C(F)(F)F (centres unmarked) [Compound 617]
IC50: < 50 nM
//
molecule: Cc1n[nH]c(C)c1-c1ccc(S(=O)(=O)C(F)(F)F)c2c1CC(F)(F)[C@H]2O [Compound 562]
IC50: > 1000 nM
//
molecule: O=S1(=O)c2ccc(Oc3ccc(F)c(F)c3)c(C(F)F)c2[C@@H](O)C1(F)F [Compound 436]
IC50: < 50 nM

Looking up CS(=O)(=O)c1ccc(Sc2cccc(C#N)c2)c2c1[C@H](O)C(F)(F)[C@@H]2F [Compound 492] , I found its IC50 recorded as > 1000 nM

get_value(item= O=S1(=O)CC(O)c2c1ccc(Oc1cc(F)cc(F)c1)c2C(F)F (centres unmarked) [Compound 370] , readout=IC50) returns 50 to 249 nM

Lab book: IC50 of N#Cc1cc(F)cc(Oc2ccc(S(=O)(=O)C(F)F)cc2C#N)c1 [Compound 134] noted as 250 to 1000 nM

IC50 reported for this molecule CC(=O)c1c(S(=O)(=O)C(F)(F)F)ccc(Oc2cc(F)cc(Cl)c2)c1Br [Compound 104] : 250 to 1000 nM

Briefly, IC50 measured for COC(C)COc1ccc(S(=O)(=O)C(F)(F)F)c2c1CCC2O (centres unmarked) [Compound 625] : > 1000 nM

----------
measurement_target: HIF-2α HIS TAG-PASB Domain (Homo sapiens, UniProt Q99814)
Construct: 100 nM HIF-2α HIS TAG-PASB Domain
Sequence (Q99814 240-350 limits assumed): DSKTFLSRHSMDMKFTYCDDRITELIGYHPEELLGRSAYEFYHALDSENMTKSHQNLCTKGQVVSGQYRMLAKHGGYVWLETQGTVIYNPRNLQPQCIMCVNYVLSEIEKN
test_protocol: HIF-2α Scintillation Proximity Assay (SPA)
Format: binding
condition_notes: read-out: Scintillation Proximity Assay IC50
pIC50: −log10 of the molar value.
value_kind: pIC50

Form: compound = COCCNC1c2c(ccc(Oc3cc(F)cc(C#N)c3)c2C(F)F)S(=O)(=O)C1(F)F (centres unmarked) [Compound 382] ; pIC50 = < 6.00

For record CC(O)c1c(S(=O)(=O)C(F)(F)F)ccc(Oc2cc(F)cc(Cl)c2)c1Br (centres unmarked) [Compound 103] the listed pIC50 is 6.00 to 6.60

The value of pIC50 measured for the compound N#CC1(COc2ccc(S(=O)(=O)C(F)(F)F)c3c2C[C@@H](F)[C@H]3O)CC1 [Compound 661] turned out to be > 7.30

In plain terms, O=S(=O)(c1ccc(OC2CCCCC2)c2c1C(O)CC2)C(F)(F)F (centres unmarked) [Compound 616] has a documented pIC50 of 6.60 to 7.30

The compound identified as CNCc1c(S(=O)(=O)C(F)(F)F)ccc(Oc2cc(F)cc(Cl)c2)c1Cl [Compound 113] registered its pIC50 at < 6.00

Entry CCCOc1ccc(S(=O)(=O)C(F)(F)F)c2c1CC(F)(F)[C@H]2O [Compound 655] — recorded pIC50 = > 7.30

pIC50 in this record for CS(=O)(=O)c1ccc(OC[C@H]2C[C@H]2C#N)c2c1[C@H](O)C(F)(F)[C@@H]2F [Compound 765] : 6.00 to 6.60

Notebook: O=S(=O)(c1ccc(Nc2cc(F)cc(F)c2)c2c1[C@H](O)CC2)C(F)(F)F [Compound 531] , pIC50 read as 6.00 to 6.60
